- tested.target: T1, gp130 on HepG2 B6 cells (UniProt P40189 23-918, limits assumed)
- T1 sequence (looked up): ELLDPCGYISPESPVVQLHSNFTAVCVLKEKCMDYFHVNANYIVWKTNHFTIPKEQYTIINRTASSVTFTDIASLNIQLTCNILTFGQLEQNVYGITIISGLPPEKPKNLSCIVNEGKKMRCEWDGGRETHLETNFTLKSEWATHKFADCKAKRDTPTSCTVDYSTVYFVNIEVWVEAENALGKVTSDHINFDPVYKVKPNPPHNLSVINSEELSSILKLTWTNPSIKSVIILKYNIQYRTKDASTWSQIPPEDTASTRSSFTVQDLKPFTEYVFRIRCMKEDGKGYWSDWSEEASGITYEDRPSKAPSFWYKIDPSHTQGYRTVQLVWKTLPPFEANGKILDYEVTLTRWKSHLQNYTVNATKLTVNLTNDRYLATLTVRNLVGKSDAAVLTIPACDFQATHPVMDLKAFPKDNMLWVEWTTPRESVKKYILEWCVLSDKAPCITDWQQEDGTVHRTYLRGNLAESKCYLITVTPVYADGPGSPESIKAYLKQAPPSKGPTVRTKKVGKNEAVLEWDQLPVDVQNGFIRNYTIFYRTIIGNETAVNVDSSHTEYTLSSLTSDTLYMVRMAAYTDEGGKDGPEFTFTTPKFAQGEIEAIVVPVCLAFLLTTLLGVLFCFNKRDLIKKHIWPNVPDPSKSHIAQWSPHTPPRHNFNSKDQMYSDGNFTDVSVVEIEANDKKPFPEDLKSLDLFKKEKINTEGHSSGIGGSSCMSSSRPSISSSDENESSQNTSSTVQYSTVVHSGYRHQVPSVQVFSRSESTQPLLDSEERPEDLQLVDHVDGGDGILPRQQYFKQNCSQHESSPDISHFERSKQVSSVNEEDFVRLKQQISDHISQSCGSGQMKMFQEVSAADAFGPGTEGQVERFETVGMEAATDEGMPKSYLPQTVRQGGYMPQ
- test.protocol: cell-based or functional assay
parameter.measured: sPAP HepG2 B6 assay: Mean % of wild type EC50 (%)
Give bare numbers, in %.

Query block: Would you mind telling me what sPAP HepG2 B6 assay: Mean % of wild type EC50 value was observed for OSM-GST mutant R122A (ligand, not shown: a dimerising Fc or GST; large carriers; small tags and cut ends, Alanine mutant of m4; also called (21)R122A; 21 R122A) AAIGSCSKEYRVLLGQLQKQTDLMQDTSRLLDPYIRIQGLDVPKLREHCRERPGAFPSEETLRGLGRRGFLQTLNATLGCVLHRLADLEQRLPKAQDLERSGLNIEDLEKLQMARPNILGLANNIYCMAQLLDNSDTAEPTKAGRGASQPPTPTPASDAFQRKLEGCRFLHGYHRFMHSVGRVFSKWGESPNRSRR ?
Result block: 101
